- System under test: FRMPD2_3, Q68DX3
- Sequence (Q68DX3 1073-1166): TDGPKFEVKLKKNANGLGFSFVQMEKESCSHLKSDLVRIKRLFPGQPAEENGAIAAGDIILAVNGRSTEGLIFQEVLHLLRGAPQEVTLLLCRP
- Assay info: holdup assay
- Parameters: key: below the threshold = too weak to quantify, mostly under pKd 3.1 to 4
- Cond: plain residues with an end cap or a label only (N-terminal biotin on a linker: ttds)

[
  {
    "Binder": "RSLEEEESQL [GRASP, Q7Z6J2]",
    "pKd": 4.08
  },
  {
    "Binder": "STLTIFETAL [ABCC4, O15439]",
    "pKd": "below the threshold"
  },
  {
    "Binder": "VLRLQSETSV [VANGL1, Q8TAA9]",
    "pKd": "below the threshold"
  },
  {
    "Binder": "ERKLSSESQV [LRP4, O75096]",
    "pKd": "below the threshold"
  }
]
